# target-under-test: RBP4 (Mus musculus (Mouse), UniProt Q00724)
# method-summary: Single administration test in mice, plasma RBP4 by ELISA
# Type: in vivo
# details: male C57BL/6J or ICR mice, 50 mg/kg oral single dose, 0 hr (just before the administration), mean±SD
# Lookup of reported RBP4 (% of initial/Control) 0 hr keyed by entry

For CC(C)(C)c1ccccc1N1CCN(C(=O)Cn2cnnn2)CC1 [Example 94] , write its RBP4 (% of initial/Control) 0 hr.
100.0 ± 21.7 % of initial/Control

Look up and report measured RBP4 (% of initial/Control) 0 hr for this entry: CC(C)(C)c1ccccc1N1CCN(C(=O)C(=O)N2CCC(C(=O)O)CC2)CC1 [Example 89]
100.0 ± 34.2 % of initial/Control

Query RBP4 (% of initial/Control) 0 hr for Cc1ccc(N2CCN(C(=O)C(=O)O)CC2)c(C(C)(C)C)c1 [Example 82]
100.0 ± 12.5 % of initial/Control

Please give the documented RBP4 (% of initial/Control) 0 hr of CC(C)(C)c1cc(Cl)ccc1N1CCN(C(=O)C(=O)O)CC1 [Example 180]
100.0 ± 23.0 % of initial/Control

Identify the reported RBP4 (% of initial/Control) 0 hr for the following entry. CC(C)(C)c1ccccc1N1CCN(C(=O)c2ccc(OCC(=O)O)cc2)CC1 [Example 24]
100.0 ± 36.4 % of initial/Control

Name the recorded RBP4 (% of initial/Control) 0 hr of the item CC(C)(C)c1ccccc1N1CCN(C(=O)c2ccc(SCC(=O)O)nc2)CC1 [Example 25] in your answer.
100.0 ± 7.3 % of initial/Control

Please report the measured RBP4 (% of initial/Control) 0 hr for CC(C)(C)c1ccccc1N1CCN(C(=O)C(=O)NCC(=O)O)CC1 [Example 87]
100.0 ± 13.6 % of initial/Control

Annotate the molecule CC(C)(C)c1ccccc1N1CCN(C(=O)C(=O)O)CC1 [Example 44] with its measured RBP4 (% of initial/Control) 0 hr.
100.0 ± 25.0 % of initial/Control

Complete the entry with RBP4 (% of initial/Control) 0 hr for CC(C)(C)c1ccccc1N1CCN(C(=O)c2cc(OCC(=O)O)no2)CC1 [Example 216]
100.0 ± 16.6 % of initial/Control

Note down RBP4 (% of initial/Control) 0 hr recorded for CC(C)(C)c1ccccc1N1CCN(C(=O)C2(C(=O)O)CC2)CC1 [Example 71]
100.0 ± 17.1 % of initial/Control

Read off the recorded RBP4 (% of initial/Control) 0 hr for CC(C)(C)c1ccccc1N1CCN(C(=O)C(=O)Nc2ccc(OCC(=O)O)cc2)CC1 [Example 201]
100.0 ± 9.8 % of initial/Control

Provide measured RBP4 (% of initial/Control) 0 hr value, entry: CC(C)(C)c1ccccc1N1CCN(C(=O)CCC(=O)O)CC1 [Example 53]
100.0 ± 29.7 % of initial/Control

Tell us which RBP4 (% of initial/Control) 0 hr value is on record for CC(C)(C)c1cc(Cl)ccc1N1CCN(C(=O)CC(=O)O)CC1 [Example 207]
100.0 ± 27.4 % of initial/Control

Annotate the molecule CC(C)(C)c1ccccc1N1CCN(C(=O)C(=O)N2CCC(C(=O)O)C2)CC1 (centres unmarked) [Example 191] with its measured RBP4 (% of initial/Control) 0 hr.
100.0 ± 8.0 % of initial/Control

* * *

# target-under-test: human RBP4 (Homo sapiens (Human))
# method-summary: Binding assay by Retinol-RBP4-TTR ELISA
# details: retinol 50 nM, His-tagged human RBP4, biotinylated human TTR; read-out: human RBP4 binding inhibitory activity (IC50 nM)
quantity-kind: IC50 (nM)

>  <compound>
CC(C)(C)c1ccccc1N1CCN(C(=O)CC(=O)O)CC1

>  <reported-result>
54

$$$$

(P) CC(C)(C)c1ccccc1N1CCN(C(=O)c2ccc(-c3noc(=O)[nH]3)cc2)CC1
(Q) CC(C)(C)c1ccccc1N1CCN(C(=O)C(=O)NS(=O)(=O)NCC2CC2)CC1
(R) CC(C)(C)c1ccccc1N1CCN(C(=O)CC2NC(=O)NC2=O)CC1 (stereo not drawn)
Ascending by IC50, please: list the compounds accordingly. Rank them, then answer with their labels in that order.
R, P, Q
(R: 34 nM, P: 49 nM, Q: 430 nM)

(A) CC(C)(C)c1ccccc1N1CCN(C(=O)NCC(=O)O)CC1
(B) CC(C)(C)c1ccccc1N1CCN(C(=O)c2c[nH]cn2)CC1
(C) CC(C)(C)c1ccccc1N1CCN(C(=O)CCC(=O)NS(C)(=O)=O)CC1
(D) CC(C)(C)c1cc(Br)ccc1N1CCN(C(=O)CC(=O)O)CC1
# desc sort on IC50 across 4 compounds // list labels; follow requested order
A, C, D, B

* * *

# target-under-test: RBP4 (Rattus norvegicus (Rat), UniProt P04916)
# method-summary: Single administration test in Wistar fatty rats, plasma RBP4 by ELISA
# Type: in vivo
# details: male Wistar fatty rats, 10 mg/kg oral single dose, 0 hr (just before the administration), mean±SD
quantity-kind: RBP4 (% of initial/Control) 0 hr

Consider the reported RBP4 (% of initial/Control) 0 hr for these compounds:
>  <compound>
CC(C)(C)c1ccccc1N1CCN(C(=O)CCC(=O)NS(C)(=O)=O)CC1 [Example 55]

>  <RBP4 (% of initial/Control) 0 hr>
100.0 ± 5.3 % of initial/Control

$$$$
>  <compound>
CC(C)(C)c1ccccc1N1CCN(C(=O)NCC(=O)O)CC1 [Example 6]

>  <RBP4 (% of initial/Control) 0 hr>
100 ± 14.1 % of initial/Control

$$$$
>  <compound>
O=C(O)CCc1nc(-c2cc(C(F)(F)F)cc(C(F)(F)F)c2)co1 [Reference Example 26, reference compound]

>  <RBP4 (% of initial/Control) 0 hr>
100 ± 22.9 % of initial/Control

$$$$

Consider the compound CC(C)(C)c1ccccc1N1CCN(C(=O)Cc2nnn[nH]2)CC1 [Example 58] . State its measured RBP4 (% of initial/Control) 0 hr.
100.0 ± 8.7 % of initial/Control

Read off the recorded RBP4 (% of initial/Control) 0 hr for CC(C)(C)c1ccccc1N1CCN(C(=O)C(=O)O)CC1 [Example 44]
100.0 ± 13.8 % of initial/Control

Please look at this compound and report its RBP4 (% of initial/Control) 0 hr: CC(C)(C)c1ccccc1N1CCN(C(=O)CC(=O)O)CC1 [Example 9]
100.0 ± 8.5 % of initial/Control

* * *

# target-under-test: RBP4 (Mus musculus (Mouse), UniProt Q00724)
# method-summary: Single administration test in mice, plasma RBP4 by ELISA
# Type: in vivo
# details: male C57BL/6J or ICR mice, 50 mg/kg oral single dose, 4 hr after administration, mean±SD
This section presents molecules with their documented RBP4 (% of initial/Control) 4 hr values.

These solved cases illustrate the format of a correct answer.
>  <molecule>
CC(C)(C)c1ccccc1N1CCN(C(=O)C2(C(=O)O)CC2)CC1 [Example 71]

>  <RBP4 (% of initial/Control) 4 hr>
51.2 ± 1.0 % of initial/Control

$$$$
>  <molecule>
CC(C)(C)c1ccccc1N1CCN(C(=O)C(=O)NCC(=O)O)CC1 [Example 87]

>  <RBP4 (% of initial/Control) 4 hr>
36.6 ± 1.0 % of initial/Control

$$$$
>  <molecule>
CC(C)(C)c1ccccc1N1CCN(C(=O)C(=O)Nc2ccc(CCC(=O)O)cc2)CC1 [Example 197]

>  <RBP4 (% of initial/Control) 4 hr>
72.2 ± 3.6 % of initial/Control

$$$$
>  <molecule>
Cc1nc(C(=O)N2CCN(c3ccccc3C(C)(C)C)CC2)cn1CC(=O)O [Example 205]

>  <RBP4 (% of initial/Control) 4 hr>
66.3 ± 5.7 % of initial/Control

$$$$
>  <molecule>
CC(C)(C)c1ccccc1N1CCN(C(=O)c2cc(OCC(=O)O)no2)CC1 [Example 216]

>  <RBP4 (% of initial/Control) 4 hr>
43.4 ± 4.7 % of initial/Control

$$$$

Under RBP4 (Mus musculus (Mouse), UniProt Q00724), report RBP4 (% of initial/Control) 4 hr for CC(C)(C)c1ccccc1N1CCN(C(=O)C(=O)N2CCC(C(=O)O)CC2)CC1 [Example 89]
42.5 ± 6.0 % of initial/Control

* * *

# target-under-test: RBP4 (Mus musculus (Mouse))
# method-summary: Single administration test in mice, plasma RBP4 by ELISA
# Type: in vivo
# details: male C57BL/6J or ICR mice, 50 mg/kg oral single dose, 4 hr after administration, mean±SD
RBP4 (% of initial/Control) 4 hr for assorted molecules

Param request: RBP4 (% of initial/Control) 4 hr | system RBP4 (Mus musculus (Mouse)) | item CC(C)(C)c1ccccc1N1CCN(C(=O)CCC(=O)O)CC1 [Example 53]
39.9 ± 3.4 % of initial/Control

Send back RBP4 (Mus musculus (Mouse)) RBP4 (% of initial/Control) 4 hr of CC(C)(C)c1ccccc1N1CCN(C(=O)c2ccc(SCC(=O)O)nc2)CC1 [Example 25] only.
45.0 ± 1.9 % of initial/Control

Answer briefly: RBP4 (% of initial/Control) 4 hr recorded on RBP4 (Mus musculus (Mouse)) for CC(C)(C)c1ccccc1N1CCN(C(=O)C(=O)NS(=O)(=O)NCC2CC2)CC1 [Example 39]
37.1 ± 1.9 % of initial/Control

The values you see were collected from patent US8853215B2.
